pIC50: −log10 of the molar value.
Endpoint: pIC50. System: USP7 (Homo sapiens). Items follow.
Sequence (Q93009 whole entry): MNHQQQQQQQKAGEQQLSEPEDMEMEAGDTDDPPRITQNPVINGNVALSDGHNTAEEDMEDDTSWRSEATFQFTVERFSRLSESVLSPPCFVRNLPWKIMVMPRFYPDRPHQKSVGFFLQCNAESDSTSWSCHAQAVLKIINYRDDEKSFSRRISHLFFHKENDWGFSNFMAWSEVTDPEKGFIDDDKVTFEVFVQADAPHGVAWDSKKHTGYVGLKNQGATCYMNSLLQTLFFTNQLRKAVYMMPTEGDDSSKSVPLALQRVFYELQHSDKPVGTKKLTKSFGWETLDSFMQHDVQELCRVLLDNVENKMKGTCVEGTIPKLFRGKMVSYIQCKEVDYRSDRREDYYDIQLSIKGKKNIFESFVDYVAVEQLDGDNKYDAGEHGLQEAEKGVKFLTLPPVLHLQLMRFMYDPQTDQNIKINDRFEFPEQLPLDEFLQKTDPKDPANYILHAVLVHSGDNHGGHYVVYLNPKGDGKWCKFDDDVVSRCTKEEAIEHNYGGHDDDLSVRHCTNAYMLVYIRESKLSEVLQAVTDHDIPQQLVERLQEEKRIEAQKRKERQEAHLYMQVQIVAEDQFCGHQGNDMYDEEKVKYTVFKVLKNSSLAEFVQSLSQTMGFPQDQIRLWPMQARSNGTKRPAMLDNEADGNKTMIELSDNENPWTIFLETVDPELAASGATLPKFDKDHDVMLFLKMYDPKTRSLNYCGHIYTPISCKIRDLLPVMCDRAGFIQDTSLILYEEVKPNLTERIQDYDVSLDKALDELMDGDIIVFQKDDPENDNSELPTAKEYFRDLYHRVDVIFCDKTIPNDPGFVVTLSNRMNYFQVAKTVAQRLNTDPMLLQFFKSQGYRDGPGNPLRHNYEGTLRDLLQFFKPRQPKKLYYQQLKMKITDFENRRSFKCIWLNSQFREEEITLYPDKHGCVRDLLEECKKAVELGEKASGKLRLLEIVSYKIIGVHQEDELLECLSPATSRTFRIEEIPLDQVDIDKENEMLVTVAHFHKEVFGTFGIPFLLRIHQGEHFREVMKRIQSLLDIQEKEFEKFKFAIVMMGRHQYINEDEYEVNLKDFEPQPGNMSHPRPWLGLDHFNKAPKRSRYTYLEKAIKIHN

I'm curious: which pIC50 was measured for COC(=O)[C@]1(C)C[C@H](N2CCCc3cc(Cl)cc(-c4ccnc5cc(CN6C(=O)CCC6=O)sc45)c32)CN1 (single isomer, unassigned) [Example 204] tested on USP7 (Homo sapiens)?
6.00 to 7.00

Short answer please: pIC50, USP7 (Homo sapiens), entry O=C(c1cc2nccc(-c3cc(Cl)cc4c3N(C3CNC3)CCC4)c2s1)N1CCC1 [Example 38]
< 6.00

// map N#Cc1cc(-c2ccnc3cc(Cn4c(=O)ccn(CC(F)F)c4=O)sc23)c2c(c1)[C@H]1C[C@H]1CN2[C@@H]1CCNC1 [Example 117a] to recorded pIC50 (system: USP7 (Homo sapiens))
6.00 to 7.00

// fetch USP7 (Homo sapiens) pIC50 for N#Cc1cc2c(c(-c3ccnc4cc(Cn5c(=O)ccn(C6CC(F)(F)C6)c5=O)sc34)c1)N([C@@H]1CN[C@@H](CO)C1)CCC2 [Example 191]
> 8.00

Kindly state the measured pIC50 obtained for O=C1CCC(=O)N1Cc1cc2nccc(-c3cc(Cl)cc4c3N([C@@H]3CCC5(CCCN5)C3)CCC4)c2s1 (single isomer, unassigned) [Example 179a] with USP7 (Homo sapiens).
7.00 to 8.00

Requested read-out pIC50, target or system USP7 (Homo sapiens), entry O=C1CCC(=O)N1Cc1cc2nccc(-c3cc(Cl)cc4c3N([C@@H]3CCNC3)CC3CC43)c2s1 (single isomer, unassigned) [Example 113a];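 further: fluorescence intensity readout of USP7 enzymatic activity, reaction incubated 90 min at room temperature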
6.00 to 7.00
